src = PubChem BioAssay

# RAM network inhibition annotations
assay: RAM signaling pathway blockade in yeast – S. cerevisiae, Pdr1DBD-CYC8 efflux-inhibited sensitized strain, primary screen (AID 1298);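 further: 0% = DMSO untreated cells without growth and 100% = 10 µM 1-NA-PP1 full growth; higher means more yeast growth rescued from 5-FOA killing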; details: S. cerevisiae cbk1-as DSE1-URA3 strain, 5-FOA growth OD615, 2 d; at 50 µM; stronger effect = higher value
Reply with just the number (in %).

Completed entries (count: 5):
Compound: C=CCn1c(C(C)NC(=O)C(C)(C)C)nc2ccccc21 (stereo unspecified)
Result Value: 0.71

Compound: NCCOc1ccccc1-c1ccccc1
Result Value: 2.4

Compound: Cc1ccc(C)c(Nc2ncnc3nc[nH]c23)c1
Result Value: 2.66

Compound: CC1(C(=O)NCc2cccnc2)CCC(=O)N1Cc1cccs1 (stereo unspecified)
Result Value: 3.95

Compound: Cc1ccc2oc(=O)c3cnn(CC(=O)N4CCc5ccccc5C4)c3c2c1
Result Value: 3.4

GET /values?readout=RAM network inhibition&item= Cc1c(C(=O)NCc2ccc3c(c2)OCO3)sc2nc(-c3ccc(F)cc3)cn12 6.3

Try Cc1cc(N)n2ncc(-c3cccc(Br)c3)c2n1 next. 1.65

Try COc1ccc(S(=O)(=O)N2CCN(c3ccc4nnc(-c5ccc(F)cc5)n4n3)CC2)cc1 next. 1.48

Try Cc1cccc2sc(NC(=O)c3ccc(Cl)s3)nc12 next. 5.32

Try CC1Cc2ccccc2N1C(=O)Cn1cnc2ccccc2c1=O (stereo unspecified) next. -0.47

Try CC(C)CC(=O)Nc1ccc(C(=O)COc2ccc(-c3nnco3)cc2)cc1 next. 2.46

###

assay: OD615 S. cerevisiae growth inhibition, permissive medium, pilot counter-assay, permissive growth control for S. cerevisiae lifespan shortening project (AID 705); details: OD615, 24 h, at 10 µM, stronger effect = higher value
# growth inhibition annotations
Reply with just the number (in %).

Completed entries (count: 5):
Molecule: Cc1ccc(C)c(NC(=O)CSc2nnc(-c3ccncc3)n2N)c1
Units: %
Result Value: 5.02
//
Molecule: CC(C)N(CCCNC(=O)CC1Oc2ccccc2NC1=O)Cc1ccccc1 (stereo not drawn)
Units: %
Result Value: 2.46
//
Molecule: COc1cc(NC(=O)COc2ccc(-n3cnnn3)cc2)c(OC)cc1Cl
Units: %
Result Value: -3.27
//
Molecule: O=C(Nc1nn[nH]n1)c1cccc(Oc2ccccc2)c1
Units: %
Result Value: -18.5
//
Molecule: COc1ccc(CCNC(=O)CN(c2ccc(OC)c(OC)c2)S(C)(=O)=O)cc1OC
Units: %
Result Value: -1.96

GET /values?readout=growth inhibition&item= OCC1(c2cc(C(F)(F)F)n[nH]2)CCCCC1 5.65

###

assay: reversal of MRP1-mediated doxorubicin resistance, pilot screen, H69AR cells, doxorubicin co-treatment (AID 601); conditions: H69AR cells + 2 uM doxorubicin, CellTiter-Glo, 72 h; at 10 µM; stronger effect = higher value
# differential viability (reversal) annotations
Reply with just the number (in %).

Molecule: Cc1ccc(-c2[nH]nc3c2C(c2ccc(OC(=O)N4CCOCC4)cc2)C(C#N)=C(N)O3)cc1 (stereo unspecified)
Units: %
differential viability (reversal): -10.4
//
Molecule: Cc1cnc(-c2nnc(N(C)C(=O)C3CCOC3)s2)cn1 (stereo unspecified)
Units: %
differential viability (reversal): 17
//
Molecule: Cn1c(=O)[nH]c(=O)c2c1nc(N1CCNCC1)n2CCOc1ccccc1
Units: %
differential viability (reversal): -8.6
//
Molecule: CCOc1ccccc1-c1nc(-c2ccc(NC(=O)Cc3ccccc3OC)cc2)no1
Units: %
differential viability (reversal): 5.33
//
Molecule: O=C(CSc1nnnn1-c1ccc(Cl)cc1)NC(=O)Nc1ccc2c(c1)OCCO2
Units: %
differential viability (reversal): 0.67
//
Molecule: COc1ccc(C(=O)NCc2nnc(SCC(=O)Nc3cc(C)cc(C)c3)o2)cc1OC
Units: %
differential viability (reversal): 7.32
//
Molecule: C=CCn1c(C)cc(C(=O)CSc2nc3ccccc3c(=O)[nH]2)c1C
Units: %
differential viability (reversal): -4.06
//
Molecule: O=C1CCc2cc(S(=O)(=O)N3CCC(C(=O)Nc4nccs4)CC3)ccc2N1
Units: %
differential viability (reversal): 4.98
//
Molecule: O=C(CCSc1ccccc1)N1CCOCC1
Units: %
differential viability (reversal): -0.87
//
Molecule: CC(=O)N1CCN(C(=O)COc2ccc(Br)cc2)CC1
Units: %
differential viability (reversal): 20.5

GET /values?readout=differential viability (reversal)&item= Nc1ccc2cn[nH]c2c1 -18.1

###

assay: viability gain of MRP-1-high H69AR cells under doxorubicin, pilot screen, MRP-1 activator project, CellTiter-Glo, duplicate (AID 807); details: H69AR viability with doxorubicin, CellTiter-Glo luminescence; at 10 µM; stronger effect = higher value;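 further: compound pretreatment 18-22 h then 72 h combined with doxorubicin; 0% = doxorubicin alone and 100% = vehicle without doxorubicin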
# viability increase annotations
Reply with just the number (in %).

Completed entries (count: 5):
Compound: CCOC(=O)N1CCN(Cc2nc3c(c(=O)n(C)c(=O)n3C)n2CCC(C)C)CC1
Quantity Name: viability increase
Units: %
Result Value: -4.73
--
Compound: COc1ccc(C)cc1Nc1cc(C)nc2nc(C)nn12
Quantity Name: viability increase
Units: %
Result Value: -4.98
--
Compound: CC1(C)SCC2C(=O)N3C(CSC3(C)C)C(=O)N21 (stereo not drawn)
Quantity Name: viability increase
Units: %
Result Value: 0.02
--
Compound: Cc1nc(N2CCN(c3ccccc3)CC2)c2c3c(sc2n1)CCC3
Quantity Name: viability increase
Units: %
Result Value: 3
--
Compound: Cc1ccc2c(c1)N(CCCC(=O)NCc1cccnc1)C(=O)CO2
Quantity Name: viability increase
Units: %
Result Value: 0.96

GET /values?readout=viability increase&item= COC(=O)c1[nH]c2cc(OC)ccc2c1NC(=O)c1ccc2c(c1)OCO2 -3.43

Try O=C(NCc1ccccn1)c1ccc2ccccc2n1 next. -1.47

Try Cc1nc(Nc2nc3ccccc3o2)nc2c1CCC2 next. -1.82

Try CC1CCN(C(=O)CSc2nnc(Cc3cccn3C)n2-c2ccc(F)cc2)CC1 next. -0.49

Try COc1ccc(OC)c2[nH]c(=O)c(CCNC(=O)c3cc4ccccc4o3)cc12 next. 2.38

Try CCc1nnc(NC(=O)CSc2nnc(Cc3cccn3C)n2C)s1 next. -1.23

Try NC(=O)CSc1nnc(Cn2c(=O)sc3ccccc32)n1CCc1ccccc1 next. -1.54

###

test: HUVEC growth inhibition – cell-based, human, primary screen (AID 575); conditions: HUVEC proliferation, CellTiter-Glo luminescence, 72 h; at 10 µM; stronger effect = lower value;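 further: 100% = median of untreated cell wells with 0.1% DMSO on each plate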
# viability annotations
Reply with just the number (in %).

Molecule: O=C(NCCCn1ccnc1)c1cnn2c1NC(c1ccccc1)CC2C(F)(F)F (stereo unspecified)
Result Value: 88.5
--
Molecule: Nc1nc(-n2cnnc2)nn1-c1ccccc1
Result Value: 85.6
--
Molecule: CNC(=O)CSc1nnc(-c2cc(C)cc(C)c2)o1
Result Value: 93.4
--
Molecule: COc1ccc(-n2c(SCc3ccc(C#N)cc3)nnc2-c2ccccn2)cc1
Result Value: 120
--
Molecule: CCn1c(C(=O)N2CCC(C(=O)NCc3ccc4c(c3)OCO4)CC2)cc2sccc21
Result Value: 96.7

GET /values?readout=viability&item= O/N=C/c1ccc(OCC(O)COc2ccc(/C=N/O)cc2)cc1 75.9

Try N#Cc1ccccc1NC(=O)CSc1nnc(-c2ccccc2)n1-c1ccccc1 next. 102

Try COC(=O)c1ccccc1NC(=O)C1CC(=O)N(c2ccc(F)cc2)C1 (stereo unspecified) next. 108

Try CS(=O)(=O)N1CCCC(C(=O)NCc2ccccc2Cl)C1 (stereo unspecified) next. 107

Try COc1cc(OC)c(C2N(C)c3ccccc3N2C)cc1OC next. 86.7

Try COc1ccc(-n2c(=O)[nH]cc(C(=O)Nc3ccc(NC(C)=O)cc3)c2=O)cc1 next. 98.8

###

test: reversal of MRP1-mediated doxorubicin resistance, pilot screen, H69AR cells, doxorubicin co-treatment (AID 601); details: H69AR cells, CellTiter-Glo, 72 h; compound alone cytotoxicity; at 10 µM
Quantity Name: viability (%)
Reply with just the number (in %).

Compound: COC(=O)C(C)C1Sc2ccccc2NC1=O (stereo unspecified)
Quantity Name: viability
Result Value: 93.9
//
Compound: CCOCCCNC(=O)CC1Oc2ccc(C)cc2NC1=O (stereo unspecified)
Quantity Name: viability
Result Value: 94.7
//
Compound: COc1ccc(OC)c(C2/C(=C(\O)c3ccc4c(c3)OCCO4)C(=O)C(=O)N2CCCN(C)C)c1 (stereo unspecified)
Quantity Name: viability
Result Value: 101
//
Compound: C[C@H]1C[C@@H]2[C@H]([C@@H](O)C[C@@]3(C)[C@H]2CC[C@]3(O)C(=O)CO)[C@@]2(C)C=CC(=O)C=C12
Quantity Name: viability
Result Value: 88.1
//
Compound: COc1ccccc1-c1nc(C#N)c(N2CCN(c3ccccc3)CC2)o1
Quantity Name: viability
Result Value: 89.8
//
Compound: CNC(=O)CSc1nnc(-c2ccc(S(=O)(=O)N3CCCC3)cc2)n1-c1cccc(C)c1C
Quantity Name: viability
Result Value: 88.9

GET /values?readout=viability&item= CN(C)C=Nc1nonc1N 94.1

Try CCOc1ccccc1-c1nc(-c2ccc(NC(=O)Cc3ccccc3OC)cc2)no1 next. 88.6

Try NCC(O)COc1ccc2c(c1)OCO2 (stereo unspecified) next. 100

Try COc1ccc(C)cc1S(=O)(=O)N1CCN(Cc2ccccc2)CC1 next. 91.2

Try CCn1c(=O)cc(OCC(=O)Nc2cc(C)ccn2)c2ccccc21 next. 86.4

Try CNC(=O)c1nnn(Cc2ccccc2)c1NC(C)=O next. 88.9

Try CC(C)(C)C(=O)CNS(=O)(=O)c1ccc(S(=O)(=O)NC2CCCC2)cc1 next. 98.8

Try C[C@]12C[C@H](O)[C@H]3[C@@H](CCC4=CC(=O)CC[C@@]43C)[C@@H]1CC[C@@H]2C(=O)CO next. 88.3

Try CCOC(=O)N1CCN(c2c(N3CCc4ccccc4C3)c(=O)c2=O)CC1 next. 91.7

Try C(=C\c1ccccc1)/CN1CCN(Cc2ccc3c(c2)OCCO3)CC1 next. 93

Try O=C(c1ccccc1Oc1nnnn1-c1ccccc1)N1CCOCC1 next. 79.6

Try C=CCn1c(SCC(=O)c2ccc(OC)cc2)nnc1C(C)NC(=O)c1cccs1 (stereo unspecified) next. 87
